# Experimental Details: Restrictive medium S. cerevisiae growth inhibition, OD615, pilot screen of yeast lifespan reduction project, restrictive growth control (AID 706);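 also: modified DeaD lifespan yeast strain shifted to restrictive glucose medium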
# Experimental Parameters: OD615, 48 h, at 10 µM, stronger effect = higher value
Measure Name: growth inhibition (%)
Give your result in % as a bare value.

// recorded growth inhibition for CCn1nnnc1-c1ccc(OC)c(S(=O)(=O)NCCc2ccccc2)c1 : 2.87

// field: growth inhibition; key: CCOc1ccc(NC(=O)Nc2ccc3c(c2)N(C)C(=O)CS3)cc1 ; value = -33.6

GET /value?item= C=CCn1c(SCCCC)nc(O)cc1=O &field=growth inhibition returns 8.79

For this molecule ( Cc1c(/C=N/n2cnnc2)c2ccccc2n1C ), measured growth inhibition is 11.6

get_value(item= CC(C)Cn1c(CNC(=O)c2ccccc2)nc2ccccc21 , readout=growth inhibition) returns -13.4

The reported value for C=CCNC(=O)C1CC(=O)N(c2ccc(Br)cc2)C1 (configuration not stated) in terms of growth inhibition is -14.1

Given item CC(=O)Nc1ccc(OCC=C(Cl)Cl)cc1 , the value recorded as its growth inhibition is 5.66

For record C=CCn1c(C(C)NC(=O)COC)nc2ccccc21 (configuration not stated) the listed growth inhibition is -4.71

The molecule listed as COc1ccc(N2CCN(C(=O)c3sc4nc(-c5ccc(F)cc5)cn4c3C)CC2)cc1 has a reported growth inhibition of -19.7

Reported growth inhibition of CCCc1ncc(C(O)c2cccc(OC)c2OC)n1C (configuration not stated) : -23

Record COc1ccc(-n2c(=O)c3ccccc3n(CC(=O)NC3CCCC3)c2=O)c(OC)c1 , field growth inhibition: -22

molecule CCCNC(=O)Cc1cc(=O)[nH]c(=O)[nH]1 , growth inhibition observed: -17.8

====

# Experimental Details: RAM signaling pathway blockade in yeast – S. cerevisiae, Pdr1DBD-CYC8 efflux-inhibited sensitized strain, primary screen (AID 1298);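 also: 0% = DMSO untreated cells without growth and 100% = 10 µM 1-NA-PP1 full growth; higher means more yeast growth rescued from 5-FOA killing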
# Experimental Parameters: S. cerevisiae cbk1-as DSE1-URA3 strain, 5-FOA growth OD615, 2 d; at 50 µM; stronger effect = higher value
The source made the active and inactive calls.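 The calls were made as follows: active = RAM network inhibition above 8.4% in each of two replicates, 3 SD over the compound average; inconclusive = above 8.4% inhibition in only one replicate; inactive = 8.4% inhibition or less in each replicate.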
Measure Name: RAM network inhibition

Form: compound = O=C(NC1CCCCC1)C1CC(=O)N(c2ccc(Cl)cc2)C1 (stereo unspecified) ; RAM network inhibition = 2.04% (inactive)

The compound identified as CCN1CCN(C(=O)CSCc2nc(-c3ccc(OC)c(OC)c3)oc2C)CC1 registered its RAM network inhibition at 1.3% (inactive)

The compound Cc1ccc(C)c(C(=O)COC(=O)c2ccc(Br)o2)c1 showed RAM network inhibition equal to 1.4% (inactive)

Record summary for CC1=C(C)C(=O)N(CCC(=O)O)C1=O : reported RAM network inhibition = 3.32% (inactive)

According to the records, this compound CCNC(=O)COc1ccc2ccccc2c1 displays RAM network inhibition of 1.53% (inactive)

Summary for this compound, COc1ccc(C)cc1NC(=O)c1nnn(CCc2ccccc2)c1N : RAM network inhibition is 3.9% (inactive)

====

# Experimental Details: growth suppression of beta-catenin knockout HCT116, pilot screen, human colon tumor cells (AID 823);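 also: 0% = wells killed by 20 µM Hyamine and 100% = untreated DMSO cell wells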
# Experimental Parameters: CellTiter-Glo, 60 h, at 10 µM
Results filed as inconclusive are left out. The source made the active and inactive calls.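 The calls were made as follows: active = cell viability at or below a set limit in both duplicate runs, the limit being the all-compound median minus 4 SD (cut at about 23% in these data, passing the limit was not always enough); inconclusive = no clear call, values can overlap the other calls; inactive = the rest.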
Entry note: the call must match one of active, inactive

Input: Field: outcome | Entry: O=C(c1ccc2nc(N3CCCCC3)sc2c1)N1CCN(Cc2ccc3c(c2)OCO3)CC1
Output: inactive

Input: Which outcome did this test record for the compound O=C(CCS(=O)(=O)c1cccc2nonc12)NCCc1ccccc1 ?
Output: inactive

Input: What call does the record list for Cc1ccc(Sc2oc(/C=N/n3cnnc3)cc2Br)cc1 ?
Output: active

Input: Kindly provide the recorded test outcome for the following compound: Cc1ccc(-c2nn(CC(=O)O)c(=O)c3ccccc23)cc1
Output: inactive

Input: Per the records of this test, what outcome belongs to Cc1nn(-c2ccccc2)c(C)c1C(=O)OCC(=O)Nc1ccc2c(c1)OCO2 ?
Output: inactive

Input: What classification did CCOC(=O)C1CCCN(c2c(Nc3cccc(C)c3)c(=O)c2=O)C1 (stereo not drawn) end up with in this test?
Output: inactive

Input: Answer briefly: the call reported for O=C(CNC(=O)c1cnccn1)Nc1ccc(F)c(F)c1F in this assay.
Output: inactive

Input: Which result was noted for this compound in the test: Cc1cc(NC(=O)c2cc3n(n2)C(C(F)(F)F)CC(c2ccco2)N3)no1 (stereo not drawn)
Output: inactive

Input: Hi team, can someone confirm the assay call for COCC(=O)Nc1ccc(C(N)=O)cc1 ?
Output: inactive

Input: Outcome? CCN(CC)C(=O)c1cc2sc3ccccc3c2s1
Output: inactive

Input: Could you check what this test reported for N#CC1=C(N)OC2=C(C(=O)CCC2)C1c1ccsc1 (stereo not drawn) ?
Output: inactive

Input: What classification did C=CCNc1ncnc2c1cnn2-c1cccc(C)c1 end up with in this test?
Output: inactive

Input: Tell me the assay call for O=C1CC2CS(=O)(=O)CC2N1C1CCCCC1 (stereo not drawn) please.
Output: inactive

Input: Hi team, can someone confirm the assay call for O=C(c1ccccc1C(=O)N1CCN(c2ccccc2F)CC1)N1CCN(c2ccccc2F)CC1 ?
Output: inactive

Input: Given CCOC(=O)N1CCN(C(=O)CSc2nnc(-c3ccc(C(C)(C)C)cc3)o2)CC1 , state the outcome it received in this test.
Output: inactive

Input: Tell me the recorded outcome of this test for COc1ccccc1Nc1nc(N)nc(CN2CCOCC2)n1 .
Output: inactive

Input: Hello, I am checking results. What call was entered for COC(=O)c1ccc(NC(=O)CNC(=O)C2CCCCC2)cc1 ?
Output: inactive

Input: Hi, do you know how CC(=O)Nn1cc2c(=O)n(C)c(=O)n(C)c2c1 came out in this test?
Output: inactive

Input: Record request — test call for CC1(C)Oc2ccc3ccc(=O)oc3c2/C(=C/Nc2ccccn2)C1=O
Output: inactive

Input: In this assay, the call recorded for Cn1c(=O)n(C)c2cc(CN3C(=O)OC(C)(C)C3(C)O)ccc21 (stereo not drawn) was what?
Output: inactive

Input: Hey, what did the test say about O=S(=O)(NCC(c1cccnc1)N1CCN(Cc2ccccc2)CC1)c1ccccc1 (stereo not drawn) ?
Output: inactive

Input: I'd appreciate the recorded outcome for CCOC(=O)c1c(C)[nH]c(C(=O)OC)c1CCC(=O)OC from this test.
Output: inactive

Input: Please indicate how the test categorized COC(=O)c1ccsc1NC(=O)c1ccc(Cl)s1 .
Output: inactive

Input: So what was the verdict on COc1cccc(NC(=O)CSc2nnc(-c3ccc(C)cc3)o2)c1 in this test?
Output: inactive

Input: What call does the record list for CCOCCCNC(=O)c1cc2c(-c3ccc(Cl)cc3)nn(C)c2s1 ?
Output: inactive

Input: Recorded test call requested for CCOc1ccc(N2C(=O)CC(Sc3nc(C)cc(C)n3)C2=O)cc1 (stereo not drawn)
Output: inactive

Input: Which outcome did this test record for the compound CCCCC(CC)CNC(=O)c1cccs1 (stereo not drawn) ?
Output: inactive

Input: Outcome? COc1ccc(-n2c(Cc3cccn3C)nnc2SCC(=O)N2CCCC2)cc1
Output: inactive

Input: Hi, do you know how O=C(Cn1cc2c(n1)CCCC2)NCC1CCCO1 (stereo not drawn) came out in this test?
Output: inactive

Input: Any idea what this test logged for Cc1ccc(S(=O)(=O)/N=C/c2ccco2)cc1 ?
Output: inactive

Input: Could you please tell me the result logged for Cc1csc(=N)n1-c1ccc(Cl)cc1 in this assay?
Output: inactive

Input: Dear colleague, could you share the recorded outcome for CCOC(=O)c1nc2nc(C)cc(=O)n2[nH]1 when you have a moment?
Output: inactive

Input: Record request — test call for O=C(NCc1ccccn1)C1CCN(S(=O)(=O)N2CCCC2)CC1
Output: inactive

Input: What call does the record list for CCCc1cc(C(=O)Nc2cc(Br)ccc2O)no1 ?
Output: inactive

Input: # lookup: test call for CCCCN(C)CCC(=O)Nc1ccc(OC)cc1OC
Output: inactive

Input: Field: outcome | Entry: C=CCOC(=O)C1=C(C)NC(=O)NC1/C=C/c1ccccc1 (stereo not drawn)
Output: inactive

Input: Fill in: this test's call for COc1ccc(C2NC(=O)NC(C)=C2C(=O)Nc2cccc(C)c2C)cc1 (stereo not drawn) is ___
Output: inactive

Input: Short answer needed: outcome of this test for COc1ccc(NC(=O)Nc2ccc3c(c2)N(C)C(=O)CS3)cc1OC ?
Output: inactive

Input: Record lookup: outcome of this test for O=C(NC1CCCCC1)N1CCCCCC1 ?
Output: inactive

Input: State the result this test recorded for Cn1c(=O)c2c(nc(NCc3ccccc3)n2Cc2ccc(F)cc2)n(C)c1=O .
Output: inactive

Input: Give the logged outcome of this assay for the following compound: CCOCCCNC(=O)Cc1cc(=O)[nH]c(=O)[nH]1
Output: inactive

Input: Please share the test call associated with CC1Cc2nc(SCC(=O)NCc3ccco3)n(Cc3ccccc3)c(=O)c2S1 (stereo not drawn) .
Output: inactive

Input: Tell me the recorded outcome of this test for COc1cccc(C2CC(c3ccccc3C)n3nc(N)nc3N2)c1 (stereo not drawn) .
Output: inactive

Input: Per the assay record, what outcome was assigned to c1ccc(CSc2nnc(-c3ccco3)n2Cc2ccco2)cc1 ?
Output: inactive

Input: Any idea what this test logged for Cc1ccc(C(=O)c2ccccc2C(=O)O)c(O)c1 ?
Output: inactive

Input: Hey, what did the test say about O=S(=O)(c1cc(Cl)ccc1Cl)N1CCN(Cc2ccc3c(c2)OCO3)CC1 ?
Output: inactive

Input: Per the assay record, what outcome was assigned to COc1ccc(-n2c(Cc3cccn3C)nnc2SCC(=O)N2CCOCC2)cc1 ?
Output: inactive

Input: Please indicate how the test categorized Nc1ccc(-c2nc3ccc(N)cc3o2)cc1 .
Output: inactive

These data points were gathered from PubChem BioAssay.
